All figures here come from the NIST ThermoML archive (doi:10.1021/je400140n).

Reported molar heat capacity at constant pressure by item:
- measurement notes: molar heat capacity at constant pressure
- conditions used: 328.2 K; 101.33 kPa; Liquid; Small sample (50 mg) DSC
Report only the number, with the unit J/K/mol understood.

Please supply the value of reported molar heat capacity at constant pressure for the item CCCCn1cc[n+](C)c1.N#CN=C=[N-] [1-butyl-3-methylimidazolium dicyanamide]
372.14

Please supply the value of reported molar heat capacity at constant pressure for the item CCn1cc[n+](C)c1.N#C[S-] [1-ethyl-3-methylimidazolium thiocyanate]
293.98

Quote molar heat capacity at constant pressure reported for CCn1cc[n+](C)c1.N#CN=C=[N-] [1-ethyl-3-methylimidazolium dicyanamide] please.
340.24
